Values compiled from patent US20260166158A1.

# System: NCI-H460 tumor-bearing mice (lung cancer)
# assay: Biodistribution: lutetium accumulation in tumor, plasma and healthy tissues by ICP-MS
# Assay type: in vivo
# measurement parameters: 24 h
Catalogue of compounds with associated T/L (Tumor/Liver ratio)
measurement type: T/L (Tumor/Liver ratio)

[
  {
    "smiles input": "CCNC(=O)c1nnc(-c2cc(C(C)C)c(O)cc2O)n1-c1ccc(C2CN(C(=O)CCOCCOCCOCCOCCOCCOCCOCCOCCOCCOCCOCCOCCNC(=O)CN3CCN4CCN5CCN(CC3)CC(=O)[O][Lu]([O]C(=O)C4)[O]C(=O)C5)C2)cc1",
    "meas value": 5.26
  },
  {
    "smiles input": "CCNC(=O)c1nnc(-c2cc(C(C)C)c(O)cc2O)n1-c1ccc(C2CCN(C(=O)CCOCCOCCOCCOCCOCCOCCOCCOCCOCCOCCOCCOCCNC(=O)CN3CCN4CCN5CCN(CC3)CC(=O)[O][Lu]([O]C(=O)C4)[O]C(=O)C5)CC2)cc1",
    "meas value": 3.64
  },
  {
    "smiles input": "CCNC(=O)c1nnc(-c2cc(C(C)C)c(O)cc2O)n1-c1ccc(OC2CCN(C(=O)CCOCCOCCOCCOCCNC(=O)CN3CCN4CCN5CCN(CC3)CC(=O)[O][Lu]([O]C(=O)C4)[O]C(=O)C5)CC2)cc1",
    "meas value": 3.67
  },
  {
    "smiles input": "CCNC(=O)c1nnc(-c2cc(C(C)C)c(O)cc2O)n1-c1ccc(OC2CCN(C(=O)CCNC(=O)[C@@H](CCC(=O)N3CCC(Oc4ccc(-n5c(C(=O)NCC)nnc5-c5cc(C(C)C)c(O)cc5O)cc4)CC3)NC(=O)CCOCCOCCOCCOCCOCCOCCOCCOCCOCCOCCOCCOCCNC(=O)CN3CCN4CCN5CCN(CC3)CC(=O)[O][Lu]([O]C(=O)C4)[O]C(=O)C5)CC2)cc1",
    "meas value": 0.41
  }
]

----------
# System: NCI-H460 tumor-bearing mice (lung cancer)
# assay: Biodistribution: lutetium accumulation in tumor, plasma and healthy tissues by ICP-MS
# Type: in vivo
# measurement parameters: second table; liver; 24 h

[
  {
    "smiles input": "CCNC(=O)c1nnc(-c2cc(C(C)C)c(O)cc2O)n1-c1ccc(C2CN(C(=O)CCOCCOCCOCCOCCOCCOCCOCCOCCOCCOCCOCCOCCNC(=O)CN3CCN4CCN5CCN(CC3)CC(=O)[O][Lu]([O]C(=O)C4)[O]C(=O)C5)C2)cc1",
    "Liver uptake, % ID/g 24 h": "0.48 % ID/g"
  },
  {
    "smiles input": "CC(C)c1cc(-c2nnc(O)n2-c2ccc(OC3CCN(C(=O)CCOCCOCCOCCOCCNC(=O)CN4CCN5CCN6CCN(CC4)CC(=O)[O][Lu]([O]C(=O)C5)[O]C(=O)C6)CC3)cc2)c(O)cc1O",
    "Liver uptake, % ID/g 24 h": "0.01 % ID/g"
  },
  {
    "smiles input": "CC(C)c1cc(-c2nnc(O)n2-c2ccc(OC3CCN(C(=O)CCOCCOCCOCCOCCOCCOCCOCCOCCOCCOCCOCCOCCNC(=O)CN4CCN5CCN6CCN(CC4)CC(=O)[O][Lu]([O]C(=O)C5)[O]C(=O)C6)CC3)cc2)c(O)cc1O",
    "Liver uptake, % ID/g 24 h": "0.06 % ID/g"
  },
  {
    "smiles input": "CCNC(=O)c1nnc(-c2cc(C(C)C)c(O)cc2O)n1-c1ccc(CC2CCN(C(=O)CCOCC(COCCC(=O)N3CCC(Cc4ccc(-n5c(C(=O)NCC)nnc5-c5cc(C(C)C)c(O)cc5O)cc4)CC3)NC(=O)CC[C@H](C(=O)O)N3CCN4CCN5CCN(CC3)CC(=O)[O][Lu]([O]C(=O)C5)[O]C(=O)C4)CC2)cc1",
    "Liver uptake, % ID/g 24 h": "3.50 % ID/g"
  }
]
